# Test system: Streptococcus pyogenes
# testDetails: Bactericidal activity against Streptococcus pyogenes 12-207 expressing mef incubated for 20 to 24 hrs followed by sub-culturing for 24 hrs in absence of compound
# Format: functional
Exercise: for every item that follows, state its recorded MBC.
Numbers only, in mg/L.

recordsmiles=CC[C@H]1OC(=O)[C@H](C)[C@@H](O[C@H]2C[C@@](C)(OC)[C@@H](O)[C@H](C)O2)[C@H](C)[C@@H](O[C@@H]2O[C@H](C)C[C@H](N(C)C)[C@H]2O)[C@](C)(OC)C[C@@H](C)C(=O)[C@H](C)[C@@H](O)[C@]1(C)O unitname=mg/L value=32
recordsmiles=CC[C@H]1OC(=O)[C@H](C)C(=O)[C@H](C)[C@@H](O[C@@H]2O[C@H](C)C[C@H](N(C)C)[C@H]2O)[C@](C)(OC)C[C@@H](C)C(=O)[C@H](C)[C@H]2N(CCCCn3cnc(-c4cccnc4)c3)C(=O)O[C@]12C unitname=mg/L value=1

Now consider a different compound.
## Task Look up MBC for this compound: "CC[C@H]1OC(=O)[C@H](C)[C@@H](OC(=O)Cc2ccccn2)[C@H](C)[C@@H](O[C@@H]2O[C@H](C)C[C@H](N(C)C)[C@H]2O)[C@](C)(OC)C[C@@H](C)/C(=N\OCC#Cc2ccc(-n3ccnc3)cc2)[C@H](C)[C@H]2OC(=O)O[C@@]21C"
## Result 8

* * *

Exercise: for every item that follows, state its recorded MIC.
# Test system: Streptococcus pneumoniae
# testDetails: Antimicrobial activity against penicillin-susceptible Streptococcus pneumoniae PU09 incubated for 20 to 24 hrs by two-fold microbroth dilution method
# Format: functional
One number for each entry, in µg/mL.

recordsmiles=CC[C@H]1OC(=O)[C@H](C)[C@@H](OC(=O)Cc2ccccn2)[C@H](C)[C@@H](O[C@@H]2O[C@H](C)C[C@H](N(C)C)[C@H]2O)[C@](C)(OC)C[C@@H](C)/C(=N\OC/C=C/c2ccnc(NC(=O)Cc3ccccn3)c2)[C@H](C)[C@H]2OC(=O)O[C@@]21C experimentalsystem="Streptococcus pneumoniae" endpointlabel=MIC value=4

## Task Look up MIC for this molecule: "CC[C@H]1OC(=O)[C@H](C)[C@@H](OC(=O)Cc2ccccn2)[C@H](C)[C@@H](O[C@@H]2O[C@H](C)C[C@H](N(C)C)[C@H]2O)[C@](C)(OC)C[C@@H](C)/C(=N\OCC#Cc2cnc(N)nc2)[C@H](C)[C@H]2OC(=O)O[C@@]21C"
## Result 0.5

* * *

Exercise: for every item that follows, state its recorded MIC.
# Tested on: Streptococcus pneumoniae
# testDetails: Antimicrobial activity against penicillin-susceptible Streptococcus pneumoniae PU09 incubated for 20 to 24 hrs by two-fold microbroth dilution method
# Assay type: functional
Numbers only, in µg/mL.

# example entries with known answers
recordsmiles=CC[C@H]1OC(=O)[C@H](C)[C@@H](OC(=O)Cc2ccccn2)[C@H](C)[C@@H](O[C@@H]2O[C@H](C)C[C@H](N(C)C)[C@H]2O)[C@](C)(OC)C[C@@H](C)/C(=N\OCC#Cc2ccc(-n3ccnc3)cc2)[C@H](C)[C@H]2OC(=O)O[C@@]21C unitname=µg/mL value=2
recordsmiles=CC[C@H]1OC(=O)[C@H](C)[C@@H](OC(=O)Cc2ccccn2)[C@H](C)[C@@H](O[C@@H]2O[C@H](C)C[C@H](N(C)C)[C@H]2O)[C@](C)(OC)C[C@@H](C)/C(=N\OCC#Cc2cncc(C(N)=O)c2)[C@H](C)[C@H]2OC(=O)O[C@@]21C unitname=µg/mL value=0.5
recordsmiles=CC[C@H]1OC(=O)[C@H](C)[C@@H](OC(=O)Cc2ccccn2)[C@H](C)[C@@H](O[C@@H]2O[C@H](C)C[C@H](N(C)C)[C@H]2O)[C@](C)(OC)C[C@@H](C)/C(=N\OC/C=C/c2ccc(N)nc2)[C@H](C)[C@H]2OC(=O)O[C@@]21C unitname=µg/mL value=1

Now consider a different compound.
## Task Please state recorded MIC (tested on Streptococcus pneumoniae) of "CC[C@H]1OC(=O)[C@H](C)[C@@H](OC(=O)Cc2ccccn2)[C@H](C)[C@@H](O[C@@H]2O[C@H](C)C[C@H](N(C)C)[C@H]2O)[C@](C)(OC)C[C@@H](C)/C(=N\OCC#Cc2ccc3nccnc3c2)[C@H](C)[C@H]2OC(=O)O[C@@]21C"
## Result 0.5

* * *

# System: Streptococcus pneumoniae
# testDetails: Ratio of MBC to MIC against erythromycin-susceptible Streptococcus pneumoniae ATCC 49619
# Type: functional
endpointLabel: Ratio
Answers are plain numbers.

# example entries with known answers
recordsmiles=CC[C@H]1OC(=O)[C@H](C)[C@@H](OC(=O)Cc2ccccn2)[C@H](C)[C@@H](O[C@@H]2O[C@H](C)C[C@H](N(C)C)[C@H]2O)[C@](C)(OC)C[C@@H](C)/C(=N\OCC#Cc2ccc(-n3ccnc3)cc2)[C@H](C)[C@H]2OC(=O)O[C@@]21C endpointlabel=Ratio value=2
recordsmiles=CC[C@H]1OC(=O)[C@H](C)[C@@H](OC(=O)Cc2ccccn2)[C@H](C)[C@@H](O[C@@H]2O[C@H](C)C[C@H](N(C)C)[C@H]2O)[C@](C)(OC)C[C@@H](C)/C(=N\OCC#Cc2cncc(C(N)=O)c2)[C@H](C)[C@H]2OC(=O)O[C@@]21C endpointlabel=Ratio value=1

## Task Please state recorded Ratio (tested on Streptococcus pneumoniae) of "CC[C@H]1OC(=O)[C@H](C)[C@@H](OC(=O)Cc2ccccn2)[C@H](C)[C@@H](O[C@@H]2O[C@H](C)C[C@H](N(C)C)[C@H]2O)[C@](C)(OC)C[C@@H](C)/C(=N\OCC#Cc2cnc(N)nc2)[C@H](C)[C@H]2OC(=O)O[C@@]21C"
## Result 2

* * *

# System: Staphylococcus aureus
# testDetails: Bactericidal activity against methicillin-resistant Staphylococcus aureus PU20 expressing constitutive ermC incubated for 20 hrs followed by sub-culturing for 24 hrs in absence of compound
# Assay type: functional
endpointLabel: MBC (µg/mL)
One number for each entry, in µg/mL.

recordsmiles=CC[C@H]1OC(=O)[C@H](C)[C@@H](OC(=O)Cc2ccccn2)[C@H](C)[C@@H](O[C@@H]2O[C@H](C)C[C@H](N(C)C)[C@H]2O)[C@](C)(OC)C[C@@H](C)/C(=N\OCC#Cc2cncc(N)c2)[C@H](C)[C@H]2OC(=O)O[C@@]21C value=256
recordsmiles=CC[C@H]1OC(=O)[C@H](C)C(=O)[C@H](C)[C@@H](O[C@@H]2O[C@H](C)C[C@H](N(C)C)[C@H]2O)[C@](C)(OC)C[C@@H](C)/C(=N\OC/C=C/c2cnc3ccccc3c2)[C@H](C)[C@H]2OC(=O)O[C@@]21C value=32

Now consider a different compound.
## Task Look up MBC for this compound: "CC[C@H]1OC(=O)[C@H](C)[C@@H](OC(=O)Cc2ccccn2)[C@H](C)[C@@H](O[C@@H]2O[C@H](C)C[C@H](N(C)C)[C@H]2O)[C@](C)(OC)C[C@@H](C)/C(=N\OCC#Cc2ccc(-n3ccnc3)cc2)[C@H](C)[C@H]2OC(=O)O[C@@]21C"
## Result 64

* * *

# Tested on: Streptococcus pneumoniae
# testDetails: Antimicrobial activity against penicillin-susceptible Streptococcus pneumoniae PU09 incubated for 20 to 24 hrs by two-fold microbroth dilution method
# Type: functional
Exercise: for every item that follows, state its recorded MIC.
Just so you know, I need the unit written after the number.

# example entries with known answers
recordsmiles=CC[C@H]1OC(=O)[C@H](C)[C@@H](OC(=O)Cc2ccccn2)[C@H](C)[C@@H](O[C@@H]2O[C@H](C)C[C@H](N(C)C)[C@H]2O)[C@](C)(OC)C[C@@H](C)/C(=N\OCC#Cc2cncc(NC(=O)Cc3ccccn3)c2)[C@H](C)[C@H]2OC(=O)O[C@@]21C endpointlabel=MIC value="2 mg/L"
recordsmiles=CC[C@H]1OC(=O)[C@H](C)[C@@H](OC(=O)Cc2ccccn2)[C@H](C)[C@@H](O[C@@H]2O[C@H](C)C[C@H](N(C)C)[C@H]2O)[C@](C)(OC)C[C@@H](C)/C(=N\OCC#Cc2ccc([N+](=O)[O-])nc2)[C@H](C)[C@H]2OC(=O)O[C@@]21C endpointlabel=MIC value="0.5 mg/L"

Now consider a different compound.
## Task Look up MIC for this compound: "CC[C@H]1OC(=O)[C@H](C)[C@@H](OC(=O)Cc2ccccn2)[C@H](C)[C@@H](O[C@@H]2O[C@H](C)C[C@H](N(C)C)[C@H]2O)[C@](C)(OC)C[C@@H](C)/C(=N\OCC#Cc2cccnc2)[C@H](C)[C@H]2OC(=O)O[C@@]21C"
## Result 0.5 mg/L

* * *

# Test system: Staphylococcus aureus
# testDetails: Bactericidal activity against methicillin-resistant Staphylococcus aureus PU20 expressing constitutive ermC incubated for 20 hrs followed by sub-culturing for 24 hrs in absence of compound
# Format: functional
Exercise: for every item that follows, state its recorded MBC.
Answers are plain numbers, in µg/mL.

# example entries with known answers
recordsmiles=CC[C@H]1OC(=O)[C@H](C)[C@@H](OC(=O)Cc2ccccn2)[C@H](C)[C@@H](O[C@@H]2O[C@H](C)C[C@H](N(C)C)[C@H]2O)[C@](C)(OC)C[C@@H](C)/C(=N\OCC#Cc2ccc3nccnc3c2)[C@H](C)[C@H]2OC(=O)O[C@@]21C experimentalsystem="Staphylococcus aureus" endpointlabel=MBC value=128
recordsmiles=CC[C@H]1OC(=O)[C@H](C)[C@@H](OC(=O)Cc2ccccn2)[C@H](C)[C@@H](O[C@@H]2O[C@H](C)C[C@H](N(C)C)[C@H]2O)[C@](C)(OC)C[C@@H](C)/C(=N\OCC#Cc2cnc(N)nc2)[C@H](C)[C@H]2OC(=O)O[C@@]21C experimentalsystem="Staphylococcus aureus" endpointlabel=MBC value=256

## Task Look up MBC for this compound: "CC[C@H]1OC(=O)[C@H](C)[C@@H](OC(=O)Cc2ccccn2)[C@H](C)[C@@H](O[C@@H]2O[C@H](C)C[C@H](N(C)C)[C@H]2O)[C@](C)(OC)C[C@@H](C)/C(=N\OCC#Cc2cccnc2)[C@H](C)[C@H]2OC(=O)O[C@@]21C"
## Result 128
